Provide the reported inhibition of each item.
Assay: inhibitors of Chlamydomonas gravitaxis, primary screen, whole organism, Chlamydomonas reinhardtii, WT vs cilia-less mutant, absorbance, 96-well (AID 463189);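 also: 0% = wild type cc124 cells in DMSO and 100% = ciliumless bld1 mutant cells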
Conditions: OD600 absorbance, 2 days, at 10 µM, active compounds read high
Kindly provide the numeric value in % only, without the unit symbol.

Problem: Supply inhibition value. Item: `Cc1cccc(C)c1NC(=O)CSCC(=O)c1ccc(O)c(O)c1`
Solution: -8.43

Problem: Supply inhibition value. Item: COC(=O)C1=C(N)Oc2cc(C)[nH]c(=O)c2C1c1ccncc1 (stereo unspecified)
Solution: 35.9

Problem: Supply inhibition value. Item: `Clc1ccc(-n2ncc3c(NCCCn4ccnc4)ncnc32)cc1`
Solution: -3.19

Problem: Supply inhibition value. Item: OC1CN=C2Sc3ccccc3N2C1 (stereo unspecified)
Solution: -4.68

Problem: Supply inhibition value. Item: `CN/C(=C/[N+](=O)[O-])NCCSCc1ccc(CN(C)C)o1`
Solution: -22.8

Problem: Supply inhibition value. Item: CCC1(C)Cc2c(C#N)c(N)sc(=S)c2CO1 (stereo unspecified)
Solution: 28.8
